Test system: MDA-MB-231 breast
experiment-summary: NCI-60 one-dose screen, 48 h (100 = growth as untreated, 0 = no growth, -100 = all killed)
protocol-conditions: 10 µM unless noted
This is part of a sample that, as a whole, favours compounds with a hit. Of some 83,000 tested, about 20% had one in any assay. Activity calls are given as the source filed them. The calls were made as follows: active = growth percent below 10; inactive = the rest.
Parameter growth: see the listing below.

compound | assay-target | growth
CCCC[N+](CCCC)=c1ccc2nc3c(C)cc(N(CC)CC)cc3sc-2c1 | MDA-MB-231 breast | -29.4% (active)
CN(C)c1ccc(/C=C(\C#N)c2nc3ccccc3c(=O)[nH]2)cc1 | MDA-MB-231 breast | 76% (inactive)
Clc1cccc(Cc2cn3cc(-c4ccccc4)nc3s2)c1 | MDA-MB-231 breast | 52.2% (inactive)
C=C1CC[C@@H]2[C@](C)(COC(C)=O)[C@H](OC(C)=O)CC[C@@]2(C)[C@@H]1CC(Nc1ccc(S(=O)(=O)Nc2cc(C)on2)cc1)C1=CCOC1=O (stereo not given in full) | MDA-MB-231 breast | 61.1% (inactive)
CN1C(=O)/C(=C/c2nc(-c3cccc(F)c3)n3ccccc23)c2ccccc21 | MDA-MB-231 breast | 61.3% (inactive)
CCS(=O)(=O)OCCCl | MDA-MB-231 breast | 118% (inactive)
CC1SC(c2c(Cl)cccc2Cl)N(NC(=O)c2[nH]c3ccc(F)cc3c2-c2ccccc2)C1=O (stereo not given) | MDA-MB-231 breast | 0.445% (active)
CCCCCCC(C)(O)c1ccccc1 (stereo not given) | MDA-MB-231 breast | 109% (inactive)
COc1cc(/C=C/C(=O)c2ccc(F)cc2)ccc1OCCCCCOc1cc2c(cc1OC)C(=O)N1CCCC1C=N2 (stereo not given) | MDA-MB-231 breast | -33% (active)
CCN(CC)c1ccc(N=Nc2cc(Cl)ccc2Cl)c(NC(=O)CCC(=O)O)c1 | MDA-MB-231 breast | 81.4% (inactive)
C[C@]12C[C@H](O)[C@H]3[C@@H](CCC4=CC(=O)CC[C@@]43C)[C@@H]1CC[C@@H]2C(=O)CO | MDA-MB-231 breast | 80.5% (inactive)
COc1cc(/C=C/C(=O)c2c(-c3ccc(F)cc3)nc3sc(C)nn23)cc(OC)c1OC | MDA-MB-231 breast | 7.91% (active)
Nc1nonc1-c1nc2ccccc2n1CC(=O)Nc1ccc2c(c1)COC2=O | MDA-MB-231 breast | 82.1% (inactive)
CCOC(=O)c1c(NC(=O)C2CCCCC2C(=O)O)sc2c1CCCC2 (stereo not given) | MDA-MB-231 breast | 105% (inactive)
COC(=O)C[C@@H]1CC=CC(=O)/C1=C(O)/C=C/c1ccccc1 | MDA-MB-231 breast | -63% (active)
C=CCOc1ccc2c(c1)CC[C@@H]1[C@@H]2CC[C@@]2(C)[C@H]1CC[C@]2(C)O | MDA-MB-231 breast | 64.7% (inactive)
O=C1CC(=O)N(c2ccccc2)O1 | MDA-MB-231 breast | 87.6% (inactive)
NC(=O)N/N=C/c1ccc(Br)o1 | MDA-MB-231 breast | 99% (inactive)
O=C1OCC/C1=C\OCCCO/C=C1\CCOC1=O | MDA-MB-231 breast | 107% (inactive)
Cc1c(NCc2nnc3n(Cc4ccccc4)c(=O)c4c5c(sc4n23)CCCC5)c(=O)n(-c2ccccc2)n1C | MDA-MB-231 breast | 96.5% (inactive)
O=c1c(O)cccn1CCCNCCCN(CCCn1cccc(O)c1=O)CCCn1cccc(O)c1=O | MDA-MB-231 breast | 96% (inactive)
O=C(CSc1nc2c(n1Nc1ccccc1)-c1ccccc1SC2)Nc1nc(-c2ccc(Cl)cc2)cs1 | MDA-MB-231 breast | 75.1% (inactive)
N#Cc1c2ccccc2c2n1-c1ccccc1OC(c1ccccc1)C2=O (stereo not given) | MDA-MB-231 breast | 22.3% (inactive)
O=C1NC(=O)/C(=C\c2ccccc2)C2=C1CCCC2 | MDA-MB-231 breast | 92.1% (inactive)
COc1cc2cn3c4ccc(O)cc4nc(N)c3c2cc1OC | MDA-MB-231 breast | 61.6% (inactive)
OC(CCC(O)(c1ccccc1)c1ccccc1)(c1ccccc1)c1ccccc1 | MDA-MB-231 breast | 81.5% (inactive)
Cc1cc2c(cc1[N+](=O)[O-])NC(CNC(C)C)CC2 (stereo not given) | MDA-MB-231 breast | 107% (inactive)
COc1ccccc1[C@H]1c2[nH]c3ccccc3c2C[C@H]2C(=O)N(CCCCCCC(=O)NO)CC(=O)N12 | MDA-MB-231 breast | 66% (inactive)
NC(=O)SCC(=O)Nc1ccccc1-c1ccccc1 | MDA-MB-231 breast | 99.7% (inactive)
Cc1ccc2c(c1)O/C(=C\c1ccc([N+](=O)[O-])o1)C2=O | MDA-MB-231 breast | 48.4% (inactive)
Clc1cc(Cl)c(OCC#CI)cc1Cl | MDA-MB-231 breast | 83.2% (inactive)
O=C(NN(C(=O)c1ccccc1)c1cccs1)c1ccccc1 | MDA-MB-231 breast | 93.4% (inactive)
CCOC(=O)C1C(=O)OC2CCCCC21 (stereo not given) | MDA-MB-231 breast | 101% (inactive)
Clc1ccc2nc(Cl)c3ccccc3c2c1 | MDA-MB-231 breast | 74.9% (inactive)
CCN(CC)c1ccc(C(O)C2=CC(=O)c3ccccc3C2=O)cc1 (stereo not given) | MDA-MB-231 breast | -51% (active)
